System: SF-268 CNS
Assay: NCI tumour cell line growth inhibition, 48 h
TGI values by entry

Compound	Experimental System	TGI
O=C(N/N=C/c1ccccc1O)N/N=C/c1ccccc1O	SF-268 CNS	> 100 µM
CN1CCC(CNc2cc(C3(C(=O)Nc4cc(C(=O)Nc5ccc(Cl)c(C(F)(F)F)c5)ccc4F)CC3)ncn2)CC1	SF-268 CNS	5.5 µM
COC1=NCc2ccccc2-c2ccccc21	SF-268 CNS	> 100 µM
CN(C)CC(O)c1ccc(Cl)c2ccccc12 (centres undefined)	SF-268 CNS	> 100 µM
O=C(Nc1cccc(Cl)c1)Nn1cnnc1	SF-268 CNS	> 100 µM
COc1cc(/C=C/C(=O)/C=C/c2cc(OC)c3c(c2)OCO3)cc2c1OCO2	SF-268 CNS	> 100 µM
CC(=O)O[C@H]1CC(C)(C)C(=C=C/C(C)=C/C=C/C=C/C=C(C)/C=C2C=C(/C=C/[C@@]34O[C@]3(C)C[C@@H](O)CC4(C)C)C(=O)O/2)[C@](C)(O)C1	SF-268 CNS	43.6 µM
Cn1c(=O)nc2n(-c3ccc(O)cc3)c3ccccc3nc-2c1=O	SF-268 CNS	> 100 µM
O=C(NCCCOC(=O)CCCCCCCCC(=O)OCCCNC(=O)NC(=O)c1c[nH]c(=O)[nH]c1=O)NC(=O)c1c[nH]c(=O)[nH]c1=O	SF-268 CNS	> 100 µM

###

System: RXF 393 renal
Assay: NCI tumour cell line growth inhibition, 48 h; in the data active = GI50 below about 0.43 µM; inactive = the rest
Outcomes: active, inactive

CCOc1ccccc1CCN=C1NC(=O)/C(=C/c2ccc3ncccc3c2)S1 inactive
O=C(Oc1cccnc1)c1cccnc1Nc1ccnc(C(F)(F)F)c1 inactive
c1cc[c]([Sn][c]2ccccc2)cc1 inactive
CCc1c2c(nc3ccc(OCc4ccc(B(O)O)cc4)cc13)-c1cc3c(c(=O)n1C2)COC(=O)[C@]3(O)CC active
c1ccc(-c2nc(-c3ccccn3)nc(-c3ccccn3)n2)nc1 inactive

###

Test system: MDA-MB-435
Outcomes: Y = active, N = inactive

Compound	Experimental System	Classification
COc1cc(/C=C/C(=O)/C=C/c2cc(OC)c3c(c2)OCO3)cc2c1OCO2	MDA-MB-435	N
CN1CCC(CNc2cc(C3(C(=O)Nc4cc(C(=O)Nc5ccc(Cl)c(C(F)(F)F)c5)ccc4F)CC3)ncn2)CC1	MDA-MB-435	N
Nc1nc2ccc(-c3nc4ccc5[nH]ncc5c4c4c3CCC4)cc2s1	MDA-MB-435	Y
Oc1cccc(Nc2nc3ccccc3c3occc23)c1	MDA-MB-435	N
O=C(NCC1CC1)c1ccc(-c2cccc(C(=O)NC3CC3)c2)cc1	MDA-MB-435	N
CC(CO)Nc1cc(-c2[nH]c3cccnc3c2-c2ccc(F)cc2)ccn1 (stereo unspecified)	MDA-MB-435	N

###

Tested on: DU-145 prostate
Test: NCI tumour cell line growth inhibition, 48 h
GI50 values by entry
Endpoint Name: GI50

Compound	Result
CC(CO)Nc1cc(-c2[nH]c3cccnc3c2-c2ccc(F)cc2)ccn1 (stereo not drawn)	17.6 µM
COc1cccc(-c2nc3cc(NC(=O)c4ccc(Cl)c(C#N)c4)ccc3o2)c1	2.36 µM
COc1ccc2c(c1)C(=O)/C(=C/c1cccc(OCC(=O)c3ccccc3)c1)CC2	32.6 µM

###

TGI values by entry
Test system: UACC-62 melanoma
Assay: NCI tumour cell line growth inhibition, 48 h
Endpoint Name: TGI

Compound	Experimental System	Result
C[C@@]1(O)C2CC3CC1(c1ccccc1)CC(/C3=N/O)/C2=N\O (some centres not stated)	UACC-62 melanoma	> 100 µM
N#CCCN(CCC#N)c1ccc(/C=C2\N=C(c3ccccc3)N(c3ccc(F)cc3)C2=O)cc1	UACC-62 melanoma	> 100 µM
CCSCCCSCCSCC	UACC-62 melanoma	> 100 µM
COC1=NCc2ccccc2-c2ccccc21	UACC-62 melanoma	> 100 µM
O=C(O)CC(Cc1ccccc1Cl)C(=O)O (configuration not stated)	UACC-62 melanoma	> 100 µM
CC1CC[C@@]2(OC1)OC1C[C@H]3[C@@H]4CC=C5CC(OC6OC(CO)C(OC7OC(CO)C(O)C(OC8OCC(O)C(O)C8O)C7OC7OC(CO)C(OC8OC(C)C(OC9OC(C)C(O)C(O)C9O)C(O)C8O)C(O)C7O)C(O)C6O)CCC5(C)[C@H]4CCC3(C)C1[C@@H]2C (some centres not stated)	UACC-62 melanoma	17.7 µM
O=[N+]([O-])c1ccccc1N=Nc1c(O)[nH]c2cccc(C(F)(F)F)c12	UACC-62 melanoma	> 100 µM
COC(=O)C1=CO[C@@H](OC2CC(CO)C(O)C(O)C2O)[C@@H]2[C@@H](C)[C@@H](OC(=O)/C=C/c3ccccc3)[C@@H](O)[C@H]12 (some centres not stated) (tested in a mixture with another compound)	UACC-62 melanoma	> 100 µM
Cn1ccnc1CCc1c(Cl)cccc1Cl	UACC-62 melanoma	> 100 µM
Cc1cc([NH-])c([NH-])cc1C.[Cl][Pt+2][Cl]	UACC-62 melanoma	27.3 µM
O=C(O)CCNS(=O)(=O)c1ccc(NC(=O)c2ccccc2)cc1	UACC-62 melanoma	> 100 µM
COc1ccc(N2CC(=O)N(C(=O)COc3ccc(OCC(=O)N4C(=O)CN(c5ccc(OC)cc5)C4=S)cc3)C2=S)cc1	UACC-62 melanoma	> 100 µM
c1ccc(/C(=N/Nc2nc3ccccc3s2)C2CCCCC2)nc1	UACC-62 melanoma	31.3 µM
CC(=O)c1c(-c2cccc3ccccc23)c(C#N)c(=S)n(C2OC(CO)C(O)C(O)C2O)c1C (configuration not stated)	UACC-62 melanoma	> 100 µM
CN(C)CCNc1ccc2c(=O)n(CCN(C)C)c(=O)n3c4ccc(O)cc4c(=O)c1c23	UACC-62 melanoma	0.147 µM
O=C(O)CCc1nc2c(n1-c1ccccc1)C(=O)c1ccccc1C2=O	UACC-62 melanoma	> 100 µM
C/C=C/C(C#N)O[Si](C)(C)C (configuration not stated)	UACC-62 melanoma	> 100 µM
